- experiment: In vitro inhibition of N-acetyl-L-aspartyl-[3H]L-glutamate binding to Glutamate carboxypeptidase II
recorded endpoint: pIC50
pIC50 here: minus log base 10 of the concentration, concentration in moles per litre.

structure	pIC50
O=C(O)CC[C@@H](CP(=O)(O)Cc1c(F)c(F)c(F)c(F)c1F)C(=O)O	5.85

Now let's try a different one.
For record O=C(O)CC[C@H](CP(=O)(O)Cc1c(F)c(F)c(F)c(F)c1F)C(=O)O the listed pIC50 is 7.47
